biological target: GDP-bound KRAS wild-type protein (Homo sapiens); assay: Binding to KRAS by surface plasmon resonance (SPR), Single Cycle Kinetics; details: SPR Single Cycle Kinetics, GDP-bound KRAS wild-type protein, 1:1 binding model; read-out: KRAS KD
MEASURED_PROPERTY: Kd (nM)
Give the number; nM is assumed, so skip it.

SMILES_ENTRY | Kd / nM
CC[C@H](C)[C@@H]1NC(=O)[C@H](CC)N(C)C(=O)C[C@@H](C(=O)N(C)C)N(C)C(=O)[C@H](C2CCCC2)N(C)C(=O)C2(CCC2)NC(=O)[C@@H]2C[C@@H](N3CCC(F)(F)CC3)CN2C(=O)[C@H](CCc2cc(F)c(C(F)(F)F)c(F)c2)NC(=O)CN(C)C(=O)[C@H](Cc2ccc(C(F)(F)F)cc2)N2CCCC[C@@H](C2=O)N(C)C(=O)CN(C)C1=O | 0.039

Next:
-- ask Look up Kd: CCC[C@H]1C(=O)N[C@@H]([C@@H](C)CC)C(=O)N(C)CC(=O)N(C)[C@H]2C/C=C\CCN(C2=O)[C@@H](Cc2ccc(C)cc2)C(=O)N(C)CC(=O)N[C@@H](CCc2ccc(Cl)c(Cl)c2)C(=O)N2C[C@H](OC3CCC3)C[C@H]2C(=O)NC2(CC(C)(C)C2)C(=O)N(C)[C@@H](C(CC)CC)C(=O)N(C)[C@H](C(=O)N(C)C)CC(=O)N1C
-- reply 0.81

* * *

molecular target: GDP-bound KRAS wild-type protein (Homo sapiens); test: Binding to KRAS by surface plasmon resonance (SPR), Single Cycle Kinetics; details: SPR Single Cycle Kinetics, GDP-bound KRAS wild-type protein, 1:1 binding model; read-out: KRAS KD
Where a SMILES comes first, the peptide text is derived from it. Bridges are numbered along the chain shown (N, C = ends). [ ]: non-standard residue; d: D form. The star is where a group is joined. hPhe(3-Cl-4-CF3) = N[C@@H](CCc1ccc(C(F)(F)F)c(Cl)c1)C(=O)O; NEtPhe(4-Me) = CCN[C@@H](Cc1ccc(C)cc1)C(=O)O; NMeGly(cPent) = CN[C@H](C(=O)O)C1CCCC1; Hyp = O=C(O)[C@@H]1C[C@@H](O)CN1; NMeD = CN[C@@H](CC(=O)O)C(=O)O; NMeL = CN[C@@H](CC(C)C)C(=O)O; Morpholide = C1CN(*)CCO1; Ac5c = NC1(C(=O)O)CCCC1; Sar = CNCC(=O)O
Listing of entries alongside the reported Kd.
Quick note: give the figure in nM, leave out the unit.

COMPOUND | ASSAYED_TARGET | REPORTED_MEASUREMENT
CC[C@H](C)[C@@H]1NC(=O)[C@H](CC(C)C)N(C)C(=O)C[C@@H](C(=O)N2CCOCC2)N(C)C(=O)[C@H](C2CCCC2)N(C)C(=O)C2(CCCC2)NC(=O)[C@@H]2C[C@@H](O)CN2C(=O)[C@H](CCc2ccc(C(F)(F)F)c(Cl)c2)NC(=O)CN(C)C(=O)[C@H](Cc2ccc(C)cc2)N(CC)C(=O)CN(C)C(=O)CN(C)C1=O [PP0041] ([NMeL]I[Sar][Sar][NEtPhe(4-Me)][Sar][hPhe(3-Cl-4-CF3)][Hyp][Ac5c][NMeGly(cPent)][NMeD]-Morpholide; lactam N-11) | GDP-bound KRAS wild-type protein (Homo sapiens) | 0.12
CCO[C@@H]1C[C@H]2C(=O)NC3(CC(C)(C)C3)C(=O)N(C)[C@@H](C3CCCC3)C(=O)N(C)[C@H](C(=O)N(C)C)CC(=O)N(C)[C@@H](CC(F)(F)F)C(=O)N[C@@H]([C@@H](C)CC)C(=O)N(C)CC(=O)N(C)[C@H]3C/C=C\CCN(C3=O)[C@@H](Cc3ccc(C(F)(F)F)cc3)C(=O)N(C)CC(=O)N[C@@H](CCc3ccc(C(F)(F)F)c(Cl)c3)C(=O)N2C1 | GDP-bound KRAS wild-type protein (Homo sapiens) | 0.052

Would you kindly look at the next entry?
-- ask Fill in: Kd of CCC[C@H]1C(=O)N[C@@H]([C@@H](C)CC)C(=O)N(C)CC(=O)N(C)[C@H]2C/C=C\CCN(C2=O)[C@@H](Cc2ccc(C(F)(F)F)cc2)C(=O)N(C)CC(=O)N[C@@H](CCc2ccc3sc(C)c(C)c3c2)C(=O)N2C[C@H](OCC)C[C@H]2C(=O)NC2(CC(C)(C)C2)C(=O)N(C)[C@@H](C2CCCC2)C(=O)N(C)[C@H](C(=O)N(C)C)CC(=O)N1C is ___
-- reply 0.29

* * *

target: UniProtKB P01116; experiment: Binding to KRAS by surface plasmon resonance (SPR), Single Cycle Kinetics; settings: SPR, Single Cycle Kinetics, GDP-bound KRAS wild-type protein; read-out: KRAS KD
MEASURED_PROPERTY: pKd
# pKd = -log10(concentration in molar units)

Please review the entries below; each comes with its answer.
SMILES_ENTRY | pKd
CCOC[C@H]1C(=O)N[C@@H]([C@@H](C)CC)C(=O)N(C)CC(=O)N(C)[C@H]2C/C=C\CCN(C2=O)[C@@H](Cc2ccc(C)cc2)C(=O)N(C)CC(=O)N[C@@H](CCc2ccc(C(F)(F)F)c(OC)c2)C(=O)N2C[C@H](OCC)C[C@H]2C(=O)NC2(CC(C)(C)C2)C(=O)N(C)[C@@H](C2CCCC2)C(=O)N(C)[C@H](C(=O)N(C)CC)CC(=O)N1C | 9.85
CCO[C@@H]1C[C@H]2C(=O)NC3(CCC3)C(=O)N(C)[C@@H](C3CCCC3)C(=O)N(C)[C@H](C(=O)N(C)C)CC(=O)N(C)[C@@H](CC)C(=O)N[C@@H]([C@@H](C)CC)C(=O)N(C)CC(=O)N(C)[C@H]3CCCCCN(C3=O)[C@@H](Cc3ccc(C(F)(F)F)cc3)C(=O)N(C)CC(=O)N[C@@H](CCc3ccc4sccc4c3)C(=O)N2C1 | 9.48

Now, please, on to the next compound.
-- ask Would you kindly share the measured pKd for CCOC[C@H]1C(=O)N[C@@H]([C@@H](C)CC)C(=O)N(C)CC(=O)N(C)[C@H]2C/C=C\CCN(C2=O)[C@@H](Cc2ccc(C)cc2)C(=O)N(C)CC(=O)N[C@@H](CCc2ccc(C(F)(F)F)c(Cl)c2)C(=O)N2C[C@@H](C)C[C@H]2C(=O)NC2(CC(C)(C)C2)C(=O)N(C)[C@@H](C2CCCC2)C(=O)N(C)[C@H](C(=O)N(C)C)CC(=O)N1C ?
-- reply 9.92

* * *

Reported values: pIC50 for human lung cancer strain NCI-H441, one per item.
Bear in mind: pIC50 is minus log10 of a mol/L concentration; give just that figure.

SMILES_ENTRY | pIC50
CCO[C@@H]1C[C@H]2C(=O)NC3(CC(C)(C)C3)C(=O)N(C)[C@@H](C(CC)CC)C(=O)N(C)[C@H](C(=O)N3CCCCC3)CC(=O)N(C)[C@@H](COC)C(=O)N[C@@H]([C@@H](C)CC)C(=O)N(C)CC(=O)N(C)[C@H]3C/C=C\CCN(C3=O)[C@@H](Cc3ccc(C(F)(F)F)cc3)C(=O)N(C)CC(=O)N[C@@H](CCc3cc(F)c(C(F)(F)F)c(F)c3)C(=O)N2C1 | 7.16

-- ask Provide value of pIC50 for this record tested with human lung cancer strain NCI-H441: CCCOC[C@H]1C(=O)N[C@@H]([C@@H](C)CC)C(=O)N(C)CC(=O)N(C)[C@H]2C/C=C\CCN(C2=O)[C@@H](Cc2ccc(C)cc2)C(=O)N(C)CC(=O)N[C@@H](CCc2ccc(C(F)(F)F)c(Cl)c2)C(=O)N2C[C@@H](C)C[C@H]2C(=O)NC2(CC(C)(C)C2)C(=O)N(C)[C@@H](C2CCCC2)C(=O)N(C)[C@H](C(=O)N(C)C)CC(=O)N1C
-- reply 8.04

-- ask Request: pIC50, test system human lung cancer strain NCI-H441, entry CCC[C@H]1C(=O)N[C@@H]([C@@H](C)CC)C(=O)N(C2CC2)CC(=O)N(C)[C@H]2C/C=C\CCN(C2=O)[C@@H](Cc2ccc(C)cc2)C(=O)N(C)CC(=O)N[C@@H](CCc2cc(F)c(C(F)(F)F)c(F)c2)C(=O)N2C[C@H](OCC)C[C@H]2C(=O)NC2(CC(C)(C)C2)C(=O)N(C)[C@@H](C(CC)CC)C(=O)N(C)[C@H](C(=O)N(C)C)CC(=O)N1C;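 further: cell proliferation inhibition after four days measured by CellTiter-Glo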
-- reply 7.33

* * *

biological target: GDP-bound KRAS wild-type protein (Homo sapiens, UniProt P01116); assay: Binding to KRAS by surface plasmon resonance (SPR), Single Cycle Kinetics; details: SPR, Single Cycle Kinetics, GDP-bound KRAS wild-type protein; read-out: KRAS KD
Sequence (P01116 whole entry): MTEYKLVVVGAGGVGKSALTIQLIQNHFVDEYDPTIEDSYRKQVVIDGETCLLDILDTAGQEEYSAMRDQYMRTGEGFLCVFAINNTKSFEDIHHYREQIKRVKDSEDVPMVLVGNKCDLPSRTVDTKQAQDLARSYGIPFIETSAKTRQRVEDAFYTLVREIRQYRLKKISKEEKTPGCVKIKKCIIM
Documented pKd across a set of molecules
Friendly reminder that pKd comes from taking -log10 of the concentration in mol/L.

SMILES_ENTRY | pKd
CCCOC[C@H]1C(=O)N[C@@H]([C@@H](C)CC)C(=O)N(C)CC(=O)N(C)[C@H]2C/C=C\CCN(C2=O)[C@@H](Cc2ccc(C(F)(F)F)cc2)C(=O)N(C)CC(=O)N[C@@H](CCc2cc(F)c(C(F)(F)F)c(F)c2)C(=O)N2C[C@H](F)C[C@H]2C(=O)NC2(CC(C)(C)C2)C(=O)N(C)[C@@H](C2CCCC2)C(=O)N(C)[C@H](C(=O)N(C)CC)CC(=O)N1C | 10.33

-- ask # returns recorded pKd (system: GDP-bound KRAS wild-type protein (Homo sapiens, UniProt P01116)) for CCO[C@@H]1C[C@H]2C(=O)NC3(CC(C)(C)C3)C(=O)N(C)[C@@H](C3CCCC3)C(=O)N3CCC[C@@H]3CC(=O)N(C)[C@@H](CC)C(=O)N[C@@H]([C@@H](C)CC)C(=O)N(C)CC(=O)N(C)[C@H]3C/C=C\CCN(C3=O)[C@@H](CC3CCCCC3)C(=O)N(C)CC(=O)N[C@@H](CCc3cc(F)c(C(F)(F)F)c(F)c3)C(=O)N2C1
-- reply 8.19

-- ask Notebook: pull reported pKd for GDP-bound KRAS wild-type protein (Homo sapiens, UniProt P01116), entry CCO[C@@H]1C[C@H]2C(=O)NC3(CC(C)(C)C3)C(=O)N(C)[C@@H](C3CCCC3)C(=O)N(C)[C@H](C(=O)N(C)C)CC(=O)N(C)[C@H]3CCCC/C=C/c4ccc(cc4)C[C@@H](C(=O)N(C)CC(=O)N[C@@H](CCc4cc(F)c(C(F)(F)F)c(F)c4)C(=O)N2C1)N1CC/C=C\C[C@@H](C1=O)N(C)C(=O)CN(C)C(=O)[C@H]([C@@H](C)CC)NC3=O
-- reply 10.60
